assay: Half life in C57Bl/6 mouse at 20 mg/kg, ip by LC/MS/MS analysis; type: ADME, organism-based; details: in vivo

[
  {
    "COMPOUND": "COc1ccc(OCC2c3cc(OC)c(OC)cc3CCN2C(=O)c2cccc(Cl)c2)cc1 (stereo unspecified)",
    "DISPLAY_UNIT": "h",
    "half-life": 1.35
  }
]

###

experiment: Ratio of drug level in brain to plasma in C57Bl/6 mouse at 20 mg/kg, ip by LC/MS/MS analysis; type: ADME, organism-based; settings: read-out: BPR

[
  {
    "COMPOUND": "COc1ccc(OCC2c3cc(OC)c(OC)cc3CCN2C(=O)c2cccc(Cl)c2)cc1 (stereo unspecified)",
    "Kp": 6.7
  }
]

###

pEC50: −log10 of the molar value.
Reported pEC50, Glutamate NMDA receptor; Grin1/Grin2c (Rattus norvegicus, UniProt P35439+Q00961).

[
  {
    "COMPOUND": "COc1ccc(OCC2c3ccc(OCC(C)C)cc3CC(=O)N2Cc2cccc(Cl)c2)cc1 (stereo not drawn)",
    "pEC50": 6.40
  },
  {
    "COMPOUND": "COc1ccc(OCC2c3cc(OC)c(OC)cc3CC(=O)N2Cc2cccc(Cl)c2)cc1 (stereo not drawn)",
    "pEC50": 5.30
  },
  {
    "COMPOUND": "COc1ccc(OCC2c3cccn3CC(=O)N2Cc2cccc(F)c2)cc1 (stereo not drawn)",
    "pEC50": 5.50
  },
  {
    "COMPOUND": "COc1ccc(OCC2c3ccc(OC(C)C)cc3CC(=O)N2Cc2cccc(F)c2)cc1 (stereo not drawn)",
    "pEC50": 6.00
  },
  {
    "COMPOUND": "COc1ccc(OCC2c3sccc3CCN2C(=O)c2cccc(Cl)c2)cc1 (stereo not drawn)",
    "pEC50": 5.40
  },
  {
    "COMPOUND": "COc1ccc(OCC2c3occc3CCN2C(=O)c2cccc(Cl)c2)cc1 (stereo not drawn)",
    "pEC50": 5.20
  },
  {
    "COMPOUND": "COc1ccc(OC[C@H]2c3cccn3CCN2C(=O)c2cccc(C(F)(F)F)c2)cc1",
    "pEC50": 5.90
  },
  {
    "COMPOUND": "COc1ccc(OCC2c3sccc3CCN2C(=O)c2ccc(Cl)s2)cc1 (stereo not drawn)",
    "pEC50": 5.30
  },
  {
    "COMPOUND": "COc1ccc(OC[C@H]2c3cccn3CC(=O)N2Cc2cccc(F)c2)cc1",
    "pEC50": 5.50
  },
  {
    "COMPOUND": "COc1ccc(OCC2c3sccc3CCN2C(=O)/C=C/C(F)(F)F)cc1 (stereo not drawn)",
    "pEC50": 4.90
  },
  {
    "COMPOUND": "COc1ccc(OC[C@H]2c3cccn3CC(=O)N2Cc2cccc(C(F)(F)F)c2)cc1",
    "pEC50": 6.10
  },
  {
    "COMPOUND": "COc1ccc(OCC2c3ccccc3CCN2C(=O)c2cccc(Cl)c2)cc1 (stereo not drawn)",
    "pEC50": 5.20
  },
  {
    "COMPOUND": "COc1ccc(OCC2c3ccc(OC(C)C)cc3CCN2C(=O)c2cccc(C(F)(F)F)c2)cc1 (stereo not drawn)",
    "pEC50": 5.80
  },
  {
    "COMPOUND": "COc1ccc(OCC2c3ccc(OCC(C)C)cc3CCN2C(=O)c2cccc(Cl)c2)cc1 (stereo not drawn)",
    "pEC50": 6.00
  },
  {
    "COMPOUND": "COc1ccc(OCC2c3ccc(OC)cc3CC(=O)N2Cc2cccc(Cl)c2)cc1 (stereo not drawn)",
    "pEC50": 5.70
  },
  {
    "COMPOUND": "COc1ccc(OCC2c3ccc(OC(C)C)cc3CC(=O)N2Cc2cccc(Cl)c2)cc1 (stereo not drawn)",
    "pEC50": 6.40
  },
  {
    "COMPOUND": "COc1ccc(OCC2c3cccn3CC(=O)N2Cc2cccc(C(F)(F)F)c2)cc1 (stereo not drawn)",
    "pEC50": 5.90
  },
  {
    "COMPOUND": "COc1ccc(OCC2c3ccc(OC)cc3CC(=O)N2CCCC(F)(F)F)cc1 (stereo not drawn)",
    "pEC50": 5.10
  },
  {
    "COMPOUND": "COc1ccc(OCC2c3cccn3CCN2C(=O)c2cccc(C(F)(F)F)c2)cc1 (stereo not drawn)",
    "pEC50": 5.80
  },
  {
    "COMPOUND": "COc1ccc(OC[C@H]2c3cccn3CCN2C(=O)c2cccc(Cl)c2)cc1",
    "pEC50": 5.70
  },
  {
    "COMPOUND": "COc1ccc(OCC2c3cccn3CCN2C(=O)c2cccc(Cl)c2)cc1 (stereo not drawn)",
    "pEC50": 5.60
  },
  {
    "COMPOUND": "COc1ccc(OCC2c3ccsc3CCN2C(=O)c2cccc(Cl)c2)cc1 (stereo not drawn)",
    "pEC50": 5.40
  },
  {
    "COMPOUND": "COc1ccc(OCC2c3ccc(OC(C)C)cc3CC(=O)N2Cc2cccc(C(F)(F)F)c2)cc1 (stereo not drawn)",
    "pEC50": 6.40
  }
]

###

Reported EC50, Ionotropic glutamate receptor NMDA 1/2D (Rattus norvegicus, UniProt P35439+Q62645).

[
  {
    "MOLECULE": "COc1ccc(OCC2c3occc3CCN2C(=O)c2cccc(Cl)c2)cc1 (stereo not given)",
    "EC50 (µM)": 7.94
  },
  {
    "MOLECULE": "COc1ccc(OCC2c3ccc(OCC(C)C)cc3CC(=O)N2Cc2cccc(Cl)c2)cc1 (stereo not given)",
    "EC50 (µM)": 0.631
  },
  {
    "MOLECULE": "COc1ccc(OCC2c3cccn3CCN2C(=O)c2cccc(Cl)c2)cc1 (stereo not given)",
    "EC50 (µM)": 3.16
  },
  {
    "MOLECULE": "COc1ccc(OCC2c3cccn3CCN2C(=O)c2cccc(C(F)(F)F)c2)cc1 (stereo not given)",
    "EC50 (µM)": 2
  },
  {
    "MOLECULE": "COc1ccc(OCC2c3cccn3CC(=O)N2Cc2cccc(C(F)(F)F)c2)cc1 (stereo not given)",
    "EC50 (µM)": 1.58
  },
  {
    "MOLECULE": "COc1ccc(OCC2c3ccc(OC(C)C)cc3CC(=O)N2Cc2cccc(Cl)c2)cc1 (stereo not given)",
    "EC50 (µM)": 0.501
  },
  {
    "MOLECULE": "COc1ccc(OCC2c3sccc3CCN2C(=O)c2ccc(Cl)s2)cc1 (stereo not given)",
    "EC50 (µM)": 5.01
  },
  {
    "MOLECULE": "COc1ccc(OC[C@H]2c3cccn3CC(=O)N2Cc2cccc(C(F)(F)F)c2)cc1",
    "EC50 (µM)": 0.794
  },
  {
    "MOLECULE": "COc1ccc(OCC2c3ccc(OC(C)C)cc3CC(=O)N2Cc2cccc(F)c2)cc1 (stereo not given)",
    "EC50 (µM)": 2
  },
  {
    "MOLECULE": "COc1ccc(OC[C@H]2c3cccn3CCN2C(=O)c2cccc(Cl)c2)cc1",
    "EC50 (µM)": 2
  },
  {
    "MOLECULE": "COc1ccc(OCC2c3ccccc3CCN2C(=O)c2cccc(Cl)c2)cc1 (stereo not given)",
    "EC50 (µM)": 7.94
  },
  {
    "MOLECULE": "COc1ccc(OCC2c3sccc3CCN2C(=O)/C=C/C(F)(F)F)cc1 (stereo not given)",
    "EC50 (µM)": 15.8
  },
  {
    "MOLECULE": "COc1ccc(OCC2c3sccc3CCN2C(=O)c2cccc(Cl)c2)cc1 (stereo not given)",
    "EC50 (µM)": 3.98
  },
  {
    "MOLECULE": "COc1ccc(OCC2c3cc(OC)c(OC)cc3CC(=O)N2Cc2cccc(Cl)c2)cc1 (stereo not given)",
    "EC50 (µM)": 10
  },
  {
    "MOLECULE": "COc1ccc(OCC2c3ccc(OC(C)C)cc3CCN2C(=O)c2cccc(Cl)c2)cc1 (stereo not given)",
    "EC50 (µM)": 3.16
  },
  {
    "MOLECULE": "COc1ccc(OCC2c3ccc(OCC(C)C)cc3CCN2C(=O)c2cccc(Cl)c2)cc1 (stereo not given)",
    "EC50 (µM)": 1.26
  },
  {
    "MOLECULE": "COc1ccc(OCC2c3ccc(OC(C)C)cc3CCN2C(=O)c2cccc(C(F)(F)F)c2)cc1 (stereo not given)",
    "EC50 (µM)": 2.51
  },
  {
    "MOLECULE": "COc1ccc(OCC2c3ccc(OC)cc3CC(=O)N2CCCC(F)(F)F)cc1 (stereo not given)",
    "EC50 (µM)": 20
  },
  {
    "MOLECULE": "COc1ccc(OC[C@H]2c3cccn3CC(=O)N2Cc2cccc(F)c2)cc1",
    "EC50 (µM)": 3.16
  },
  {
    "MOLECULE": "COc1ccc(OC[C@H]2c3cccn3CCN2C(=O)c2cccc(C(F)(F)F)c2)cc1",
    "EC50 (µM)": 1.26
  },
  {
    "MOLECULE": "COc1ccc(OCC2c3ccc(OC)cc3CC(=O)N2Cc2cccc(Cl)c2)cc1 (stereo not given)",
    "EC50 (µM)": 2.51
  },
  {
    "MOLECULE": "COc1ccc(OCC2c3ccsc3CCN2C(=O)c2cccc(Cl)c2)cc1 (stereo not given)",
    "EC50 (µM)": 5.01
  },
  {
    "MOLECULE": "COc1ccc(OCC2c3cccn3CC(=O)N2Cc2cccc(F)c2)cc1 (stereo not given)",
    "EC50 (µM)": 3.16
  },
  {
    "MOLECULE": "COc1ccc(OCC2c3ccc(OC(C)C)cc3CCN2C(=O)c2cccc(F)c2)cc1 (stereo not given)",
    "EC50 (µM)": 7.94
  },
  {
    "MOLECULE": "COc1ccc(OCC2c3ccc(OC(C)C)cc3CC(=O)N2Cc2cccc(C(F)(F)F)c2)cc1 (stereo not given)",
    "EC50 (µM)": 0.631
  }
]
